Biological target: T1, human IGF2^1-67 (mature insulin-like growth factor 2) (human, UniProt P01344 25-91, biotinylated (site not stated) where immobilised on the chip (Tables 1-4))
T1 construct: mature; also called mature IGF2; biotinylated IGF2
T1 sequence (P01344 25-91): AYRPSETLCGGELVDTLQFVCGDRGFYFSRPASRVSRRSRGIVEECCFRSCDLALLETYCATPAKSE
Test: SPR (Biacore T200, 25 °C, HBS-EP pH 7.4); ΔΔG° = RT ln(KD mutant / KD domain 11^AB3); box AB+FG
Description: Boxes show the change in the binding free energy contribution, ΔΔGº, for the indicated mutants. The loop/s that contains the mutation/s is indicated in each box. The ΔΔGº values were calculated as ΔΔGº=ΔGº domain 11^mutant−ΔGº domain 11^AB3=RTln(KD domain 11^mutant/KD domain 11^AB3). Additive and non-additive contributions of single point mutations are shown when calculated with a box solid line and dashed line, respectively. […]
ASSAY_METRIC: ΔΔG (kcal/mol)

{"columns": ["BINDER", "ΔΔG / kcal/mol"],
 "data": [
  ["domain 11^AB3 P1597H (receptor, See m5; also called AB3 + 62B (FG-P1597H)) MKSNEHDDCQVTNPSTGHLFDLSSLSGRAGFTAAYSKSGVVYMSICGENENCPPGVGACFGQTRISVGKANKRLRYVDQVLQLVYKDGSHCPSKSGLSYKSVISFVCRPEAGPTNRPMLISLDKQTCTLFFSWHTPLACEQATECSV", -1.49],
  ["domain 11^AB5 G1603K (receptor, See m5) MKSNEHDDCQVTNPSTGHLFDLSSLSGRAGFTAAYAKGWGVYMSICGENENCPPGVGACFGQTRISVGKANKRLRYVDQVLQLVYKDGSPCPSKSKLSYKSVISFVCRPEAGPTNRPMLISLDKQTCTLFFSWHTPLACEQATECSV", -1.02],
  ["domain 11^AB5 S1602H (receptor, See m5) MKSNEHDDCQVTNPSTGHLFDLSSLSGRAGFTAAYAKGWGVYMSICGENENCPPGVGACFGQTRISVGKANKRLRYVDQVLQLVYKDGSPCPSKHGLSYKSVISFVCRPEAGPTNRPMLISLDKQTCTLFFSWHTPLACEQATECSV", -0.93],
  ["domain 11^AB5 P1597H (receptor, See m5) MKSNEHDDCQVTNPSTGHLFDLSSLSGRAGFTAAYAKGWGVYMSICGENENCPPGVGACFGQTRISVGKANKRLRYVDQVLQLVYKDGSHCPSKSGLSYKSVISFVCRPEAGPTNRPMLISLDKQTCTLFFSWHTPLACEQATECSV", -1.23]
]}

These data points were gathered from patent US20180237497A1.
